Value source: the supplement of paper PMC10567573

B1: NEK8 (parent)
chain: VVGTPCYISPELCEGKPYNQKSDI

Variants of: B1
Procedure text: protein stability index of a GFP-peptide fusion (GPS, HEK-293T) (PSI 1-6); higher = more stable;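 note: lentivirally expressed fusions sorted by FACS into six bins by GFP to DsRed ratio, PSI derived from sequencing read proportions per bin multiplied by bin number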
Assay conditions: c terminus: a fixed tail appended
Kindly state protein stability index for each of the entries shown.
Give bare numbers.

Below, each entry is followed by its recorded protein stability index result.
Change | Reported
G3I | 1.8
S9D | 3.44
P10T | 2.74

Hi! Can you tell me protein stability index for each of these variants?
1. V2M
2. E11G
3. P17H
4. K21T
5. P5T
6. Q20L
7. S22D
8. C13S

Return:
3.23
2.54
2.9
2.48
3.32
2.55
3.05
2.9
